Data provenance is PubChem BioAssay (NCI).

Tested on: T-47D breast
Experiment: NCI-60 one-dose screen, 48 h
Details: 10 µM unless noted
This is part of a sample that, as a whole, favours compounds with a hit. Of some 83,000 tested, about 20% had one in any assay. Active and inactive are the calls of the source. Rule for the calls: active = growth percent below 10; inactive = the rest.
Choose one outcome from this list and give only that: active, inactive

### Prompt State the result this test recorded for `C=CCn1c(SCC(=O)Nc2ccc(C(=O)/C=C/c3cc4cc(OC)ccc4nc3Cl)cc2)nnc1-c1ccc(Br)cc1` .
### Response inactive

### Prompt Answer briefly: the call reported for N#CC1CCc2c(c(-c3cn[nH]c3C(F)(F)F)nc3c(F)cc4[nH]ncc4c23)C1 (centres undefined) in this assay.
### Response active

### Prompt Returns: the outcome recorded for `O=c1c2cc(-c3ccccc3)sc2nc2sc(-c3ccccc3)nn12` in this assay.
### Response inactive

### Prompt How did this test come out for CC1(c2ccccc2O)NN=C(/N=C/c2cccc([N+](=O)[O-])c2)N1C(Cc1c[nH]c2ccccc12)C(=O)O (centres undefined) ?
### Response inactive

### Prompt Tell me the assay call for COc1ccc(C(=O)C2C(c3ccc(OC)cc3)CN(C)C23C(=O)Nc2ccccc23)cc1 (centres undefined) please.
### Response inactive

### Prompt Identify the outcome logged in this assay for the compound shown: `COc1ccccc1NC(=O)Cn1cc(CN2CCN(c3ccnc4cc(Cl)ccc34)CC2)nn1`
### Response inactive

### Prompt Hi, sorry to bother you, what did the test record for `CC(C)=NNc1ccccn1` ?
### Response inactive

### Prompt Hey, what did the test say about `CN1CCN(Cc2ccc(NC(=O)c3cncc(C#Cc4cnc(N)c5ccccc45)c3)cc2C(F)(F)F)CC1` ?
### Response active

### Prompt Hi team, can someone confirm the assay call for `COC(=O)c1cc(-c2ccccc2)[nH]c1N/N=C/c1c(Cl)cccc1Cl` ?
### Response inactive

### Prompt Write down the call the test reported for this compound. Item: `OB(O)c1cccc(-c2nc3ccc4[nH]ncc4c3c3c2CCCC3)c1`
### Response inactive

### Prompt Recorded test call requested for `COC(=O)c1n[nH]c2ccc3nc(-c4cn[nH]c4C(F)(F)F)c4c(c3c12)CCCC4`
### Response inactive

### Prompt What was the test verdict on COc1cc(NC(C)CCCNC(C)C)c2ncccc2c1OC (centres undefined) ?
### Response inactive

### Prompt # outcome recorded in this test, key = `C#COc1cccc(Nc2ncnc3ncc(NC(=O)CCl)cc23)c1`
### Response inactive

### Prompt How was `CN(C)Cc1ccc(NC(=O)c2cncc(C#Cc3cnc(N)c4ncccc34)c2)cc1F` classified in this test?
### Response inactive

### Prompt Hi team, can someone confirm the assay call for `C=C1C(=O)O[C@H]2[C@H]1CC/C(COC(=O)NCc1ccc(Cn3c(=O)sn(CCI)c3=O)cc1)=C\CC[C@@]1(C)O[C@@H]21` ?
### Response inactive

### Prompt How did this test come out for C=C1CC[C@@H]2[C@](C)(COC(C)=O)[C@H](OC(C)=O)CC[C@@]2(C)[C@@H]1CC(Sc1ccccc1)C1=CCOC1=O (some centres undefined) ?
### Response active

### Prompt Look up the recorded call for `CNC(=O)c1cc(Oc2ccc3nc(NC(C)=O)sc3c2)ccn1` in this test.
### Response inactive

### Prompt I'd appreciate the recorded outcome for CN(Cc1ccc(C(F)(F)F)cc1)CC(O)C(=O)Nc1ccc(Cl)cc1 (centres undefined) from this test.
### Response inactive

### Prompt What was the test verdict on `Fc1cccc(CNc2c3ccccc3nc3ccccc23)c1F` ?
### Response inactive

### Prompt Would you mind telling me which call this test gave `C/C(Nc1ccc(Cl)c(Cl)c1)=C1\CCOC1=O` ?
### Response inactive

### Prompt What did this assay record as the result for `Cn1cc(-c2nonc2-c2c[nH]c3ccc(Br)cc23)c2cc(Br)ccc21` ?
### Response inactive

### Prompt In this assay, the call recorded for `COc1cc(-c2cc(-c3cccs3)c(C#N)c(N3CCOCC3)n2)cc(OC)c1OC` was what?
### Response inactive

### Prompt Kindly provide the recorded test outcome for the following compound: `CC1(C)CCC(S(=O)(=O)c2ccc3c(c2)/C(=N\O)c2cc(S(=O)(=O)N4CCC(O)(c5cccc(C(F)(F)F)c5)CC4)ccc2-3)CC1`
### Response active

### Prompt Could you kindly confirm the outcome this assay logged for `CN(C)c1ccc(/C=C/C(=O)c2ccc(-n3cc(CN4CCN(c5cc6c(cc5F)c(=O)c(C(=O)O)cn6C5CC5)CC4)nn3)cc2)cc1` ?
### Response inactive

### Prompt Look up the recorded call for `COc1ccc(/C(C)=C(/c2ccc(OCCCN(C)C)cc2)c2ccc(OC(=O)Cc3ccccc3)cc2)cc1` in this test.
### Response inactive

### Prompt How was NC(=O)CCC(C(=O)O)N1C(=O)c2ccc(O)cc2C1=O (centres undefined) classified in this test?
### Response inactive

### Prompt // return assay outcome for `Cn1cc(-c2csc(-c3c[nH]c4ccc(Br)cc34)n2)c2cnccc21`
### Response active

### Prompt What did the test return for `O=C1Nc2ccccc2[C@]12CC(c1ccccc1)=NN2` ?
### Response inactive

### Prompt Which result was noted for this compound in the test: Nc1ncnc2c1N=C(c1ccc3c(c1)OCO3)CC(c1ccc([N+](=O)[O-])cc1)N2 (centres undefined)
### Response inactive

### Prompt // outcome(item) with item = O=C1N(Cc2ccccc2Cl)c2ccccc2C12NN=C(c1cccc(Cl)c1)S2 (centres undefined)
### Response active

### Prompt Any idea what this test logged for `CCn1c(=S)[nH]c2c(=O)n(C)c(=O)n(C)c21` ?
### Response inactive

### Prompt Dear colleague, could you share the recorded outcome for `c1cc2[nH]ncc2cc1-c1nc2ccc3[nH]ncc3c2c2c1CCCC2` when you have a moment?
### Response active

### Prompt Which outcome did this test record for the compound `CCSc1nc(NC)c2cc(-c3ccc(C(F)(F)F)cc3)ccc2n1` ?
### Response inactive

### Prompt Identify the outcome logged in this assay for the compound shown: `C[C@]12CC[C@@H]3c4ccc(O)c([N+](=O)[O-])c4CC[C@H]3[C@@H]1CCC2=O`
### Response inactive

### Prompt Give the logged outcome of this assay for the following compound: `O=C(Nc1cc(Cl)ccc1O)c1ccc(Nc2ccnc(C(F)(F)F)c2)cc1`
### Response active

### Prompt Would you mind telling me which call this test gave `O=C1/C(=C/c2ccc(F)cc2)COc2ccc(O)cc21` ?
### Response inactive

### Prompt // param item: `C=C(C)[C@@H]1CC[C@]2(C(=O)NCCNCCN)CC[C@]3(C)[C@H](CC[C@@H]4[C@@]5(C)C/C(=C/c6ccncc6)C(=O)C(C)(C)[C@@H]5CC[C@]43C)[C@@H]12` ; yields the recorded call
### Response inactive

### Prompt # lookup: test call for N#CC1=C(N)Oc2c(sc3c(F)cccc23)C1c1ccc(F)cc1 (centres undefined)
### Response inactive

### Prompt Please let me know the test result on file for `COc1cc(/C=C/C(=O)c2cccc(Nc3nc(Nc4ccccc4)nc(Nc4ccccc4)n3)c2)cc(OC)c1OC` .
### Response inactive

* * *

Tested on: DU-145 prostate
Assay: NCI-60 one-dose screen, 48 h
Settings: 10 µM unless noted
About 83,000 compounds went through this panel and 20% of them were active in at least one assay; those are over-represented in the sample as a whole. Active and inactive are the calls of the source. Rule for the calls: active = growth percent below 10; inactive = the rest.
API: response.call in TRUE for active, FALSE for inactive

### Prompt Look up the recorded call for `O=C1Nc2ccccc2/C1=C\c1nc(-c2ccccc2F)n2ccccc12` in this test.
### Response TRUE

### Prompt Hi, sorry to bother you, what did the test record for `O=CC1(C2(C=O)c3ccccc3-c3ccccc32)c2ccccc2-c2ccccc21` ?
### Response TRUE

### Prompt Record lookup: outcome of this test for `CS(=O)(=O)Nc1cc(-c2ccc3ncnc(Nc4ccc5c(cnn5Cc5ccccn5)c4)c3c2)cnc1Cl` ?
### Response FALSE

### Prompt Which outcome was assigned to `Oc1c(Cl)cc(Cl)c2ccc(Cn3cc(-c4ccc(C(F)(F)F)cc4)nn3)nc12` in this test?
### Response FALSE

### Prompt Recorded test call requested for `N#Cc1nc(-c2ccccc2)oc1S(=O)(=O)N1CCOCC1`
### Response FALSE

### Prompt Please share the test call associated with `CN(C)CCNc1nc2c3cc(Cl)ccc3nn2c2ccccc12` .
### Response FALSE

### Prompt // return assay outcome for `Cc1ccc2c(n1)C(=O)c1[nH]c3ccccc3c1C2=O`
### Response TRUE

### Prompt Any idea what this test logged for `N#CCSc1nnc2n(Cc3ccccc3)c(=O)c3c4c(sc3n12)CCCC4` ?
### Response FALSE

### Prompt Recorded test call requested for `COc1cnc2c(c1)C(=O)c1c-2n(CCCNCCO)c(=O)c2ccncc12`
### Response TRUE

### Prompt # lookup: test call for `O=C(Nc1cccnc1Nc1ccc(F)cc1)c1cn(Cc2cccc(Oc3ccccc3)c2)nn1`
### Response FALSE

### Prompt What did this assay record as the result for `Cc1cc(N)c2cc(NC(=O)/C=C\c3ccccc3Cl)ccc2n1` ?
### Response TRUE

### Prompt Hi, sorry to bother you, what did the test record for `Cc1ccc(-c2nc3nc(-c4ccccc4)nc(N4CCNCC4)c3o2)cc1` ?
### Response TRUE

### Prompt Tell me the assay call for `N#C/C(=C\c1ccc(-c2ccc(Cl)cc2)o1)C(=O)Nc1ncc(Cc2ccc(Cl)cc2)s1` please.
### Response FALSE

### Prompt Outcome? `O=C1C(Cl)=C(Oc2ccccc2)C(=O)c2ccccc21`
### Response FALSE

### Prompt Check the results log: what was the call for `CC(C)OC(=O)c1ccc2[nH]c(O)c(C(=Nc3ccc(N(C)C(=O)CN4CCN(C)CC4)cc3)c3ccccc3)c2c1` ?
### Response TRUE

### Prompt I would be grateful if you could indicate the recorded call for `COc1cc(-c2nc3cc(Cl)c(Cl)cc3[nH]2)ccc1OCC(=O)N=Nc1c(O)[nH]c2ccc([N+](=O)[O-])cc12` .
### Response FALSE

### Prompt Test call for this molecule, please: `CCCCC[C@@H]1Cc2cc(O)c(C(=O)O)c3c2[C@H](C[C@]2(OC[C@@H](CC(=O)[C@@](C)(CC)C(=O)OC)[C@@H]2C)O3)O1`
### Response FALSE

### Prompt Dear all, I need the recorded test outcome for `COc1ccc(/C=C2\COc3ccc(O)cc3C2=O)c(OC)c1OC` , thank you.
### Response FALSE

### Prompt Fill in: this test's call for `COc1ccc(Cc2cc(-c3ccccc3)nn(Cc3ccccc3)c2=O)cc1OC` is ___
### Response FALSE

### Prompt Which outcome did this test record for the molecule `Oc1c(Cl)cc(Cl)cc1/C=N/Nc1nnc(N/N=C/c2cc(Cl)cc(Cl)c2O)c2ccccc12` ?
### Response FALSE
